biological target: SARS-CoV-2 Alpha B.1.1.7 spike on pseudovirus (SARS-CoV-2); assay: cell-based or functional assay
Decide by pseudovirus neutralization IC50: equal to or exceeding 2 nM means Satisfied, less means Not satisfied.

Take a look at these entries with their results.
BINDER: 19C10 VHH-Fc (Fc fusion) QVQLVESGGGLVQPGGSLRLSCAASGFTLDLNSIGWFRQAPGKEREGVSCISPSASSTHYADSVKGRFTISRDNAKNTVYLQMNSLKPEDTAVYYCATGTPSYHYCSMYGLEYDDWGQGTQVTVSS
CLASSIFICATION: Not satisfied
//
BINDER: 5A6 VHH-Fc (Fc fusion) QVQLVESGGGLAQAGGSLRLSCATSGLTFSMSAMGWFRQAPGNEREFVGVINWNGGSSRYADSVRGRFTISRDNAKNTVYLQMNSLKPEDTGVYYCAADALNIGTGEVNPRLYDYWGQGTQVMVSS
CLASSIFICATION: Satisfied
//
BINDER: 1E4 VHH-Fc (Fc fusion) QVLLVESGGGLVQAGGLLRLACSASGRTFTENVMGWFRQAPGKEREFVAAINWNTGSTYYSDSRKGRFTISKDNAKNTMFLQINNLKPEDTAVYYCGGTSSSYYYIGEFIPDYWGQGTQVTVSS
CLASSIFICATION: Satisfied
//
BINDER: 3D4 VHH-Fc (Fc fusion) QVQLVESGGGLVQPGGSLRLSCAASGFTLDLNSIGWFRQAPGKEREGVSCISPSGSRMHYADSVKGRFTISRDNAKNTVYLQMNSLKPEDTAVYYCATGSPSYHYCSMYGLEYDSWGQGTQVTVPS
CLASSIFICATION: Not satisfied
//
BINDER: 19E10 VHH-Fc (Fc fusion) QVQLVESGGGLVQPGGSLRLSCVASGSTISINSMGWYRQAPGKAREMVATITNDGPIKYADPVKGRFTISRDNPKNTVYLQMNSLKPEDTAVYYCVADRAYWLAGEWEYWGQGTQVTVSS
CLASSIFICATION: Satisfied
//
BINDER: 9B2 VHH-Fc (Fc fusion) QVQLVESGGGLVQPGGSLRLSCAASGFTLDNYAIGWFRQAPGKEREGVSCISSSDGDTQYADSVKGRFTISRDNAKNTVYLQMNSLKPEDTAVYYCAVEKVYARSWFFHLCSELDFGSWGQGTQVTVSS
CLASSIFICATION: Satisfied

Query block: # check: pseudovirus neutralization IC50 of 10B8 VHH-Fc (Fc fusion) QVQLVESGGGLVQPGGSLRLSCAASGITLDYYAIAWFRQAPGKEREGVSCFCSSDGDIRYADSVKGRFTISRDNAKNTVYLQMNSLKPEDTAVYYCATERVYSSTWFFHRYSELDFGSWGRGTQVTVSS is greater than or equal to 2 nM
Result block: Not satisfied

Query block: Same thing, different binder: 1A11 VHH-Fc (Fc fusion) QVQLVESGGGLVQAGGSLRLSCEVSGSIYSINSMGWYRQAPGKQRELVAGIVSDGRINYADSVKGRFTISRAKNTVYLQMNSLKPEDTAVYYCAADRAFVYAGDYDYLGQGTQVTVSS
Result block: Satisfied

From: patent US20250382355A1
